Reference for the values: the supplement of paper PMC5908809

# System: KAI3 (IL-2 2.5 ng/mL)
# Measurement Notes: drug sensitivity score (DSS) (DSS units); higher = more sensitive; extreme values may be limits of the assay
# Condition Description: 72 h
Assign label 1 to entries whose drug sensitivity score meets or exceeds 6; assign label 0 to the rest.

Compound: Nc1cc(C(F)(F)F)c(-c2cc(N3CCOCC3)nc(N3CCOCC3)n2)cn1 [Buparlisib] (max concentration tested 10000 nM)
Label Class: label 1
--
Compound: Nc1nc(Cl)nc2c1ncn2[C@H]1C[C@H](O)[C@@H](CO)O1 [Cladribine] (max concentration tested 1000 nM)
Label Class: label 1

Check this compound for drug sensitivity score at or above 6: Cc1ccc(-c2cc(C(F)(F)F)nn2-c2ccc(S(N)(=O)=O)cc2)cc1 [Celecoxib] (max concentration tested 10000 nM) label 0

Check this compound for drug sensitivity score at or above 6: O=C(Nc1cccc(Nc2ncc(Br)c(NCCc3cnc[nH]3)n2)c1)N1CCCC1 [BX-912] (max concentration tested 10000 nM) label 1

Check this compound for drug sensitivity score at or above 6: C[C@@]1(C(=O)Nc2ccc(F)nc2)CCCN1c1nc(Nc2cc(C3CC3)n[nH]2)c2cccn2n1 (max concentration tested 10000 nM) label 0
